Recorded measurements of pKi, one per entry
- SUBJECT_OF_TEST: Human Recombinant Matriptase 2 (Homo sapiens)
- Construct: made in house
- Sequence (Q8IU80 whole entry): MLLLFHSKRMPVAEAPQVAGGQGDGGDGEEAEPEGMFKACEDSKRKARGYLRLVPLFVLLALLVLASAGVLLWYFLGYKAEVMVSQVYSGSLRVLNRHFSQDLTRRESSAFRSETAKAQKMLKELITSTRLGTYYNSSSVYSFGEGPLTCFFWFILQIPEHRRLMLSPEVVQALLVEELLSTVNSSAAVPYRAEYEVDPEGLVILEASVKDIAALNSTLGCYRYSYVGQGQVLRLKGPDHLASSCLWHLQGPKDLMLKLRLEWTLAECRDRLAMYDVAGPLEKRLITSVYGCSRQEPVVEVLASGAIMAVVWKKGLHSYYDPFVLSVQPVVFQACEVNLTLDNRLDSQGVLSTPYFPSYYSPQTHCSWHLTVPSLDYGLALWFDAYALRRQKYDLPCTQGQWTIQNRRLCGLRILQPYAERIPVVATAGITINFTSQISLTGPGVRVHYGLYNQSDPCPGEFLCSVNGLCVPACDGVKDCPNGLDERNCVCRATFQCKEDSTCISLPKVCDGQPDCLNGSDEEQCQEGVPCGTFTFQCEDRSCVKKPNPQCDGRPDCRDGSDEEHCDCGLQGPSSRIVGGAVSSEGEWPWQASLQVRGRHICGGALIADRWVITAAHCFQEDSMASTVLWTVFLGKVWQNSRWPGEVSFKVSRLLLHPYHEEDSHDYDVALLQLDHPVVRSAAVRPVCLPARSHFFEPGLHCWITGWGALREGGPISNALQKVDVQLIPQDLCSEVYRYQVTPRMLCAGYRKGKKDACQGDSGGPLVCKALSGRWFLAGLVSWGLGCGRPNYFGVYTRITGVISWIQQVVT
- ASSAY: Matriptase 2 inhibition, fluorescence based assay (Method I)
- Type: biochemical
- COND: Table A; Ki of Matriptase-2 given as class symbols; read-out: Mat-2 Ki
pKi: −log10 of the molar value.

Take a look at these entries with their results.
| COMPOUND | SUBJECT_OF_TEST | pKi |
| --- | --- | --- |
| NCc1ccc2cc(C(=O)O)n(Cc3cc(NS(=O)(=O)Cc4cscn4)cc4ccccc34)c2n1 [Compound 239] | Human Recombinant Matriptase 2 (Homo sapiens) | 6.30 to 7.00 |
| Cc1cccc(C)c1CS(=O)(=O)Nc1cc(Cn2c(C(=O)OCCC3CCN(C)CC3)cc3ccc(CN)cc32)c2ccccc2c1 [Compound 377] | Human Recombinant Matriptase 2 (Homo sapiens) | ≥ 7.00 |
| Cc1nc(CS(=O)(=O)Nc2cc(Cn3c(C(=O)O)cc4ccc(CN)nc43)c3ccccc3c2)cs1 [Compound 256] | Human Recombinant Matriptase 2 (Homo sapiens) | 6.30 to 7.00 |

Prompt: Given the compound NCc1ccc2cc(C(=O)O)n(Cc3cc(NS(=O)(=O)[C@H]4CCNC4)cc4ccccc34)c2n1 [Compound 259] , what is its reported pKi?
Response: 6.30 to 7.00

Prompt: Given Cc1cccc(C)c1CS(=O)(=O)Nc1cc(Cn2c(C(=O)OCCN(C)C)cc3ccc(CN)nc32)c2ccccc2c1 [Compound 201] , state its recorded pKi.
Response: 6.30 to 7.00

Prompt: Quick one: pKi for CC[C@H]1CCCCN1C(=O)Nc1cc(Cn2c(C(=O)O)cc3ccc(CN)nc32)c2ccccc2c1 (racemic) [Compound 306] ?
Response: 5.52 to 6.30

Prompt: Given C[C@@H](CN1CCCCC1)OC(=O)Nc1cc(Cn2c(C(=O)O)cc3ccc(CN)nc32)c2ccccc2c1 (racemic) [Compound 339] , state its recorded pKi.
Response: 5.52 to 6.30
